System: Mus musculus
Test: At a dose 50 mg/kg (114 umol/kg) was administered intraperitoneally to mice and was evaluated for area under curve (AUCtot)
Format: ADME, organism-based
Design: time AUCmax, dose 50 mg/kg, route intraperitoneal
Conditions: in vivo, ip
Readout Type: AUC total

Structure Smiles String: CC(C)(C)c1cnc(CSc2cnc(NC(=O)Cc3ccc(CNC(CO)CO)cc3)s2)o1
Readout Type: AUC total
Value: 2.7 µM·h

###

System: HCT-116
Assay: Inhibition of HCT116 / VM46 human colon carcinoma cell proliferation
Format: functional, cell-based
Here the recorded IC50 is given for each entry.

Molecule: CCc1cnc(CSc2cnc(NC(C)=O)s2)o1
IC50: 530 nM
--
Molecule: CN1CC[C@H](c2c(O)cc(O)c3c(=O)cc(-c4ccccc4Cl)oc23)[C@H](O)C1 [ALVOCIDIB]
IC50: 21 nM
